The compounds below have reported pIC50 for human placental aromatase (Homo sapiens, UniProt P11511).
One number for each entry, as −log10 of the molar value.

Below, 2 compounds whose answers are already recorded.
Fill in reported pIC50 for this entry: CC1(C)OC(=O)c2ccc(C(c3ccc([N+](=O)[O-])cc3F)n3cncn3)cc21 (stereo not drawn) 7.20

Fill in reported pIC50 for this entry: CC1(C)OC(=O)c2ccc(C(c3ccc([N+](=O)[O-])cc3)n3cncn3)cc21 (stereo not drawn) 7.29

# input for lookup
Fill in reported pIC50 for this entry: CC1(C)OC(=O)c2ccc(C(c3c(F)cc([N+](=O)[O-])cc3F)n3cncn3)cc21 (racemic) 7.82
